- TARGET DESC: whole brain AChE (Mus musculus)
- Construct: the brains rapidly removed (minus cerebellum), weighed and homogenized in 0.1M phosphate buffer pH 8.0; from tissue; host or cells: mouse brain (minus cerebellum) homogenate supernatant
- Sequence (P21836 32-614): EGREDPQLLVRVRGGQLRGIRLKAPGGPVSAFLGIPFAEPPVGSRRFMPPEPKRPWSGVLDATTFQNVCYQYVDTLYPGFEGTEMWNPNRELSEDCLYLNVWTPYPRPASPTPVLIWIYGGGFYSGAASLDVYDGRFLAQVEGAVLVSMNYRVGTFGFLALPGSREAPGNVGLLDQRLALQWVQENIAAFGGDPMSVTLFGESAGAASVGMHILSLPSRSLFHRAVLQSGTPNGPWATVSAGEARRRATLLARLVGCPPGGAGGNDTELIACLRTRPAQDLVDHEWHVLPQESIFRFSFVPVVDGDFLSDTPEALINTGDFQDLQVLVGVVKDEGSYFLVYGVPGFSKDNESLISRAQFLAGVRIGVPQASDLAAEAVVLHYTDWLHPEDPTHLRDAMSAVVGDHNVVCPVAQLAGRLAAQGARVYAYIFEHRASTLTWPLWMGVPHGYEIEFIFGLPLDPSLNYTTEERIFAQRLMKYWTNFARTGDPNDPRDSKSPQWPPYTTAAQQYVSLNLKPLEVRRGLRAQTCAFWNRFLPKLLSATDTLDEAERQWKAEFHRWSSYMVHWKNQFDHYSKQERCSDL
- TEST DETAILS: Ex vivo measurement of brain AChE inhibition after sub-cutaneous administration
- Format: in vivo, mice
- STATED CONDITIONS: sc; sub-cutaneous, mouse whole brain, at peak of activity; read-out: AChE Inhibition Ex vivo ED50 (AC)
Counter-ions that a name gives are not always drawn.
The threshold is 40 µmol/kg. Values of ED50 beneath it are tagged satisfied; values meeting or exceeding it are tagged not satisfied.

> print(dat)
                                   compound   answer.label
1  C#CCNC(C)Cc1cccc(OC(=O)N(C)C2CCCCC2)c1 (stereo not shown) [Compound 36]  not satisfied
2  C#CC(C)NCCc1cccc(OC(=O)N(C)C)c1 (stereo not shown) [Compound 29]      satisfied
3  C#CCNCCc1cccc(OC(=O)N(C)CC)c1 [Compound 13]  not satisfied
4  C#CCN(C)C(C)Cc1cccc(OC(=O)N(C)CCCCCC)c1 (racemic) [Compound 27]  not satisfied
5  C#CCNCCc1cccc(OC(=O)N(C)CCC)c1 [Compound 14]  not satisfied
6  C#CCN(C)C(C)Cc1cccc(OC(=O)N(C)C)c1 (racemic) [Compound 20, HCl]      satisfied
7  C#CCNC(C)Cc1cccc(OC(=O)N(C)C)c1 (stereo not shown) [Compound 16]      satisfied
8  C#CCNC(C)Cc1cccc(OC(=O)N(C)CCC)c1 (racemic) [Compound 19, HCl]  not satisfied
9  C#CCN(C)[C@@H](C)Cc1cccc(OC(=O)N(C)CCCCCC)c1 [Compound 38]  not satisfied

Now take the following compound into account.
Please let me know if C#CC(C)NCCc1cccc(OC(=O)N(C)CC)c1 (stereo not shown) [Compound 30] shows ED50 below 40 µmol/kg.
not satisfied
